target: Microtubule-associated protein tau (Homo sapiens, UniProt P10636); assay: Inhibition of tau (unknown origin) aggregation expressed in Escherichia coli BL21 (DE3)
Sequence (P10636 whole entry): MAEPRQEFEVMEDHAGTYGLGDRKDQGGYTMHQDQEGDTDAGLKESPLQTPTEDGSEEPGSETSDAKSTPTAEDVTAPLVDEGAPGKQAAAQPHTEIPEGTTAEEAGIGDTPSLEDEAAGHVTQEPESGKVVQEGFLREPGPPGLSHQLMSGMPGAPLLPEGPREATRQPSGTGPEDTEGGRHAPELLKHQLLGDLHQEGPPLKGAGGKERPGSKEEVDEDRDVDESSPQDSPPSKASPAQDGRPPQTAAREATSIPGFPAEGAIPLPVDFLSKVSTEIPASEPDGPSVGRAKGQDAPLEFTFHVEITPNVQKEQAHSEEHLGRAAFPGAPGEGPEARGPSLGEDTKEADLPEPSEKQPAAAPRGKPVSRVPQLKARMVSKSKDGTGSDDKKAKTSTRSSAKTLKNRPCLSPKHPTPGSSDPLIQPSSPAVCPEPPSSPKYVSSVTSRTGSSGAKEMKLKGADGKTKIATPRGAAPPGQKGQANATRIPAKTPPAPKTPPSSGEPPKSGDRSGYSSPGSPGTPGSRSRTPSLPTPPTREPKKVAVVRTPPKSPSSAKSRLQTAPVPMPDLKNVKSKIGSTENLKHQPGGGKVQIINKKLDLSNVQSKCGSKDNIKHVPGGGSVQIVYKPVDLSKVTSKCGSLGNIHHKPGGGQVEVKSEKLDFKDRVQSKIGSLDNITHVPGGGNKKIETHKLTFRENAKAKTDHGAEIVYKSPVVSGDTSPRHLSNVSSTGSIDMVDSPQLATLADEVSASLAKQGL
Each entry falls into one class according to its IC50; the ranges are Low: < 6 µM; Mid: ≥ 6 µM and < 10 µM; High: ≥ 10 µM

As a guide, the following entries are already answered.
[
  {
    "SMILES STRING": "COc1ccc2sc3c(C)ccc(NCCC4CCN(C)CC4)c3c(=O)c2c1",
    "TARGET ENTITY": "Microtubule-associated protein tau (Homo sapiens, UniProt P10636)",
    "CLASS ASSIGNMENT": "Low"
  },
  {
    "SMILES STRING": "COc1ccc2sc3c(C)ccc(NCC[C@@H]4CCCN5CCCC[C@H]45)c3c(=O)c2c1",
    "TARGET ENTITY": "Microtubule-associated protein tau (Homo sapiens, UniProt P10636)",
    "CLASS ASSIGNMENT": "High"
  },
  {
    "SMILES STRING": "COc1ccc2sc3c(C)ccc(NC[C@@H]4CCCN5CCCC[C@H]45)c3c(=O)c2c1",
    "TARGET ENTITY": "Microtubule-associated protein tau (Homo sapiens, UniProt P10636)",
    "CLASS ASSIGNMENT": "Low"
  },
  {
    "SMILES STRING": "CCN(CC)CCNc1ccc(C)c2sc3ccccc3c(=O)c12",
    "TARGET ENTITY": "Microtubule-associated protein tau (Homo sapiens, UniProt P10636)",
    "CLASS ASSIGNMENT": "High"
  },
  {
    "SMILES STRING": "Cc1ccc(NCC[C@@H]2CCCN3CCCC[C@H]23)c2c(=O)c3cc(O)ccc3sc12",
    "TARGET ENTITY": "Microtubule-associated protein tau (Homo sapiens, UniProt P10636)",
    "CLASS ASSIGNMENT": "Mid"
  }
]

Query: Category of CCN(CC)CCCNc1ccc([N+](=O)[O-])c2sc3ccc(OC)cc3c(=O)c12 , please.
Response: Low

Query: Category of COc1ccc2sc3c([N+](=O)[O-])ccc(NCC[C@@H]4CCCN5CCCC[C@H]45)c3c(=O)c2c1 , please.
Response: Mid

Query: Category of Nc1ccc(NC[C@@H]2CCCN3CCCC[C@H]23)c2c(=O)c3ccccc3sc12 , please.
Response: Mid

Query: Category of Cc1ccc(NCCCSC[C@@H]2CCCN3CCCC[C@H]23)c2c(=O)c3ccccc3sc12 , please.
Response: High

###

molecular target: Amyloid-beta precursor protein (Homo sapiens); test: Inhibition of amyloid beta 40 peptide (unknown origin) aggregation incubated for 2 hr by ThT fluorescence based spectrofluorimetric analysis
Sequence (P05067 whole entry): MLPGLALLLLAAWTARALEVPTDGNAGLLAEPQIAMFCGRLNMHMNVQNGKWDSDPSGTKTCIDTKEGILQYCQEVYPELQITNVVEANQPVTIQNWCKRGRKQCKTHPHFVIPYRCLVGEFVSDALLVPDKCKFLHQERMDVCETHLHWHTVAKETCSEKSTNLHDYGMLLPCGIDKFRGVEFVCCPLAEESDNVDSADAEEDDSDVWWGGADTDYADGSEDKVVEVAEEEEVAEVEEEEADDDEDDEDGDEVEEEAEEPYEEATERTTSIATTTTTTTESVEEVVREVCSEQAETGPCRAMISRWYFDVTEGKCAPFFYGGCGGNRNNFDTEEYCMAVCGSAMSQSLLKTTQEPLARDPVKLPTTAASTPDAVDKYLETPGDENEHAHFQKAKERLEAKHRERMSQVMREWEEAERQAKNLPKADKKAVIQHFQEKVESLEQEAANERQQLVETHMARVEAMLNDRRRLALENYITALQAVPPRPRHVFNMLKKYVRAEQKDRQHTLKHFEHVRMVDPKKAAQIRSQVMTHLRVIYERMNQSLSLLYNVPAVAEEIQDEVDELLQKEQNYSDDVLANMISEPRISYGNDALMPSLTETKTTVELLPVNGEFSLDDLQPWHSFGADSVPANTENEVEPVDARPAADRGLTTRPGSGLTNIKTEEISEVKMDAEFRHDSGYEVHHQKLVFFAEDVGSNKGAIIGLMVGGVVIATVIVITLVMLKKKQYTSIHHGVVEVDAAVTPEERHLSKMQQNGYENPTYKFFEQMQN
Each entry falls into one class according to its IC50; the ranges are lo: < 4 µM; med: ≥ 4 µM and < 10 µM; hi: ≥ 10 µM

[
  {
    "COMPOUND": "COc1ccc2sc3c([N+](=O)[O-])ccc(NC[C@@H]4CCCN5CCCC[C@H]45)c3c(=O)c2c1",
    "TARGET ENTITY": "Amyloid-beta precursor protein (Homo sapiens)",
    "CLASS ASSIGNMENT": "hi"
  },
  {
    "COMPOUND": "CCN(CC)CCCNc1ccc([N+](=O)[O-])c2sc3ccc(OC)cc3c(=O)c12",
    "TARGET ENTITY": "Amyloid-beta precursor protein (Homo sapiens)",
    "CLASS ASSIGNMENT": "hi"
  },
  {
    "COMPOUND": "Nc1ccc(NC[C@@H]2CCCN3CCCC[C@H]23)c2c(=O)c3ccccc3sc12",
    "TARGET ENTITY": "Amyloid-beta precursor protein (Homo sapiens)",
    "CLASS ASSIGNMENT": "hi"
  }
]

Query: Category of COc1ccc2sc3c(C)ccc(NCCC[C@@H]4CCCN5CCCC[C@H]45)c3c(=O)c2c1 , please.
Response: lo

Query: Category of COc1ccc2sc3c([N+](=O)[O-])ccc(NCC[C@@H]4CCCN5CCCC[C@H]45)c3c(=O)c2c1 , please.
Response: med

Query: Category of O=c1c2ccccc2sc2c([N+](=O)[O-])ccc(NC[C@@H]3CCCN4CCCC[C@H]34)c12 , please.
Response: hi

Query: Category of COc1ccc2sc3c(N)ccc(NCC[C@@H]4CCCN5CCCC[C@H]45)c3c(=O)c2c1 , please.
Response: hi

Query: Category of Nc1ccc(NCCC[C@@H]2CCCN3CCCC[C@H]23)c2c(=O)c3ccccc3sc12 , please.
Response: lo

Query: Category of CCN(CC)CCCNc1ccc(N)c2sc3ccc(OC)cc3c(=O)c12 , please.
Response: hi

Query: Category of Cc1ccc(NCCC[C@@H]2CCCN3CCCC[C@H]23)c2c(=O)c3ccccc3oc12 , please.
Response: hi

Query: Category of O=c1c2ccccc2sc2c([N+](=O)[O-])ccc(NCCC[C@@H]3CCCN4CCCC[C@H]34)c12 , please.
Response: hi

Query: Category of COc1ccc2sc3c(C)ccc(NCC[C@@H]4CCCN5CCCC[C@H]45)c3c(=O)c2c1 , please.
Response: lo

Cited source: ChEMBL document CHEMBL5335771
